Test system: RAW264.7
Assay Comment: Antiinflammatory activity against LPS-stimulated mouse RAW264.7 cells assessed as inhibition of NO production incubated for 2 hrs followed by LPS stimulation for 20 hrs by Griess reagent based assay
Format: functional, cell-based
pIC50: −log10 of the molar value.
Each entry below carries its recorded pIC50.
Measurement Label: pIC50

[[record]]
molecule = "C=C(C)[C@@H]1CC[C@]2(C)[C@H](CC=C3[C@@H]4[C@@H](C)[C@H](C)CC[C@]4(C)CC[C@]32C)[C@@]1(C)CCCO"
measurement_label = "pIC50"
value = 4.23

[[record]]
molecule = "COc1ccc2c(c1)c(CC(=O)O)c(C)n2C(=O)c1ccc(Cl)cc1 [INDOMETHACIN]"
measurement_label = "pIC50"
value = 4.39

[[record]]
molecule = "C=C(C)[C@@H]1CC[C@]2(C)CC[C@]3(C)[C@H](CC[C@@H]4[C@@](C)(CCCN5C[C@H](O)C[C@H]5C(=O)OC)[C@H](C(=C)C)CC[C@]43C)[C@@H]12"
measurement_label = "pIC50"
value = 4.63


###

System: RAW264.7
Assay Comment: Cytotoxicity against mouse RAW264.7 cells assessed as reduction in cell viability at 8.8 to 70 uM incubated for 24 hrs by MTS assay
Assay type: toxicity, cell-based
Protocol Conditions: raw264.7, 24 h, dose 8.8-70 µM
Measurement Label: Activity

[[record]]
molecular_string = "C=C(C)[C@@H]1CC[C@]2(C)[C@H](CC=C3[C@@H]4[C@@H](C)[C@H](C)CC[C@]4(C)CC[C@]32C)[C@@]1(C)CCCNCC(=O)OC"
measurement_label = "Activity"
value = "Non-Toxic"

[[record]]
molecular_string = "C=C(C)[C@@H]1CC[C@]2(C)CC[C@]3(C)[C@H](CC[C@@H]4[C@@](C)(CCCO)[C@H](C(=C)C)CC[C@]43C)[C@@H]12"
measurement_label = "Activity"
value = "Non-Toxic"

[[record]]
molecular_string = "C=C(C)[C@@H]1CC[C@]2(C)[C@H](CC=C3[C@@H]4[C@@H](C)[C@H](C)CC[C@]4(C)CC[C@]32C)[C@@]1(C)CCCO"
measurement_label = "Activity"
value = "Non-Toxic"

[[record]]
molecular_string = "C=C(C)[C@@H]1CC[C@]2(C)[C@H](CC=C3[C@@H]4[C@@H](C)[C@H](C)CC[C@]4(C)CC[C@]32C)[C@@]1(C)CCCN1C[C@H](O)C[C@H]1C(=O)OC"
measurement_label = "Activity"
value = "Non-Toxic"

[[record]]
molecular_string = "C=C(C)[C@@H]1CC[C@]2(C)CC[C@]3(C)[C@H](CC[C@@H]4[C@@](C)(CCCN5CCOCC5)[C@H](C(=C)C)CC[C@]43C)[C@@H]12"
measurement_label = "Activity"
value = "Non-Toxic"


###

Test system: Mus musculus
Assay Comment: Anti-inflammatory activity against TPA-induced auricular edema CD-1 mouse model assessed as inhibition of ear edema at 1 mg per ear applied immediately after TPA application and measured after 4 hrs relative to control
Type: functional
Measurement Label: inhibition (INH) (%)

[[record]]
compound = "C=C(C)[C@@H]1CC[C@]2(C)CC[C@]3(C)[C@H](CC[C@@H]4[C@@]5(C)CC[C@@H](O)C(C)(C)[C@@H]5CC[C@]43C)[C@H]12"
value = 66.4

[[record]]
compound = "C[C@H]1[C@H](C)CC[C@]2(C(=O)O)CC[C@]3(C)C(=CC[C@@H]4[C@@]5(C)CC[C@H](O)C(C)(C)[C@@H]5CC[C@]43C)[C@H]12 [URSOLIC ACID]"
value = 34.2

[[record]]
compound = "C=C(C)[C@@H]1CC[C@]2(C)CC[C@]3(C)[C@H](CC[C@@H]4[C@@](C)(CCCN5C[C@H](O)C[C@H]5C(=O)OC)[C@H](C(=C)C)CC[C@]43C)[C@@H]12"
value = 36.4

[[record]]
compound = "COc1ccc2c(c1)c(CC(=O)O)c(C)n2C(=O)c1ccc(Cl)cc1 [INDOMETHACIN]"
value = 91.4

[[record]]
compound = "C=C(C)[C@@H]1CC[C@]2(C)[C@H](CC=C3[C@@H]4[C@@H](C)[C@H](C)CC[C@]4(C)CC[C@]32C)[C@@]1(C)CCCNCC(=O)OC"
value = 40.1

[[record]]
compound = "C=C(C)[C@@H]1CC[C@]2(C)[C@H](CC=C3[C@@H]4[C@@H](C)[C@H](C)CC[C@]4(C)CC[C@]32C)[C@@]1(C)CCCN1CCOCC1"
value = 12.2

[[record]]
compound = "C=C(C)[C@@H]1CC[C@]2(C)CC[C@]3(C)[C@H](CC[C@@H]4[C@@](C)(CCCO)[C@H](C(=C)C)CC[C@]43C)[C@@H]12"
value = 17.3

[[record]]
compound = "C=C(C)[C@@H]1CC[C@]2(C)CC[C@]3(C)[C@H](CC[C@@H]4[C@@](C)(CCCN5CCOCC5)[C@H](C(=C)C)CC[C@]43C)[C@@H]12"
value = 11.1

[[record]]
compound = "C=C(C)[C@@H]1CC[C@]2(C)[C@H](CC=C3[C@@H]4[C@@H](C)[C@H](C)CC[C@]4(C)CC[C@]32C)[C@@]1(C)CCCO"
value = 9.5

[[record]]
compound = "C=C(C)[C@@H]1CC[C@]2(C)[C@H](CC=C3[C@@H]4[C@@H](C)[C@H](C)CC[C@]4(C)CC[C@]32C)[C@@]1(C)CCCN1C[C@H](O)C[C@H]1C(=O)OC"
value = 25.2


Provenance of the data: ChEMBL document CHEMBL5120759
